Experiment: Hygroscopicity test
Type: physicochemical
Conditions: relative humidity 73%, 30° C., one week
Method: Hygroscopicity tests of the salts were performed by keeping exact weight samples of the different salts at varied humidity at 30° C. After one week, the samples were weighed again and based on the original weight the percentage weight difference was calculated. […]
MEASURED PARAMETER: Weight difference (%)
Answers are plain numbers, in %.

# example entries with known answers
{"columns": ["MOLECULE", "Weight difference (%)"],
 "data": [
  ["COC1(c2cccc(F)c2F)CCNC1.O=C(O)C(O)C(O)C(=O)O (centres unmarked)", 1.90],
  ["COC1(c2cccc(F)c2F)CCNC1.O=C(O)C(=O)O (centres unmarked) [Reference Example 19, reference compound]", "−0.05"],
  ["COC1(c2cccc(F)c2F)CCNC1.Cl (centres unmarked)", "−0.13"],
  ["COC1(c2cccc(F)c2F)CCNC1.O=C(O)C[C@H](O)C(=O)O (centres unmarked)", 0.07]
]}

Task: Reported Weight difference (%), molecule CO[C@]1(c2cccc(F)c2F)CCNC1.O=C(O)/C=C/C(=O)O : ____
Result: 0.06

###

Experiment: Hygroscopicity test
Assay type: physicochemical
Conditions: relative humidity 0%, 30° C., one week
MEASURED PARAMETER: Weight difference (%)
Could you write the number and then its unit?

# count of solved cases: 2
{"columns": ["COMPOUND", "Weight difference (%)"],
 "data": [
  ["COC1(c2cccc(F)c2F)CCNC1.Cl (centres unmarked) [Example 8]", "0.00%"],
  ["COC1(c2cccc(F)c2F)CCNC1.O=C(O)C[C@H](O)C(=O)O (centres unmarked) [Example 13]", "−0.07%"]
]}

// for each compound in input: emit Weight difference (%)
1. CO[C@]1(c2cccc(F)c2F)CCNC1.O=C(O)/C=C/C(=O)O [Example 7]
2. COC1(c2cccc(F)c2F)CCNC1.O=C(O)C(=O)O (centres unmarked) [Reference Example 19, reference compound]
3. COC1(c2cccc(F)c2F)CCNC1.O=C(O)C(O)C(O)C(=O)O (centres unmarked) [Example 9]

Result:
1. −0.07%
2. 0.00%
3. −2.36%

###

Test: Hygroscopicity test
Assay type: physicochemical
Settings: relative humidity 32%, 30° C., one week
Provide the recorded Weight difference (%) for the entries that follow.
One number for each entry, in %.

Consider the reported Weight difference (%) for these compounds:
{"columns": ["COMPOUND", "UNITS LABEL", "Weight difference (%)"],
 "data": [
  ["CO[C@]1(c2cccc(F)c2F)CCNC1.O=C(O)/C=C/C(=O)O", "%", 0.13],
  ["COC1(c2cccc(F)c2F)CCNC1.O=C(O)C(O)C(O)C(=O)O (centres unmarked)", "%", 2.16],
  ["COC1(c2cccc(F)c2F)CCNC1.O=C(O)C(=O)O (centres unmarked) [Reference Example 19, reference compound]", "%", 0.11],
  ["COC1(c2cccc(F)c2F)CCNC1.O=C(O)C[C@H](O)C(=O)O (centres unmarked)", "%", 0.00]
]}

Task: What value of Weight difference (%) has been recorded for this entry: COC1(c2cccc(F)c2F)CCNC1.Cl (centres unmarked)
Result: 0.00

###

Assay: Hygroscopicity test
Assay type: physicochemical
Settings: relative humidity 22%, 30° C., one week
Protocol: Hygroscopicity tests of the salts were performed by keeping exact weight samples of the different salts at varied humidity at 30° C. After one week, the samples were weighed again and based on the original weight the percentage weight difference was calculated. […]
MEASURED PARAMETER: Weight difference (%)
One number for each entry, in %.

Solved cases below.
{"columns": ["MOLECULE", "UNITS LABEL", "VAL"],
 "data": [
  ["COC1(c2cccc(F)c2F)CCNC1.O=C(O)C[C@H](O)C(=O)O (centres unmarked) [Example 13]", "%", "−0.08"],
  ["COC1(c2cccc(F)c2F)CCNC1.Cl (centres unmarked) [Example 8]", "%", "−0.15"],
  ["CO[C@]1(c2cccc(F)c2F)CCNC1.O=C(O)/C=C/C(=O)O [Example 7]", "%", 0.15],
  ["COC1(c2cccc(F)c2F)CCNC1.O=C(O)C(=O)O (centres unmarked) [Reference Example 19, reference compound]", "%", 0.00]
]}

Task: Entry COC1(c2cccc(F)c2F)CCNC1.O=C(O)C(O)C(O)C(=O)O (centres unmarked) [Example 9] has what Weight difference (%)?
Result: 2.40
